Answer each item with its documented normalized growth.
- protocol notes: chemical genetic growth profiling, strain panel (AID 1159580);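 further: tested at 20 µM; growth read once vehicle control cultures reached saturation at 30 °C; 1 = growth at the plate median or of vehicle wells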
- measurement setup: S. cerevisiae deletion strains, growth OD, locus YHR027C, strain rpn1, hits give low values
The campaign covered roughly 5,500 compounds. About 2,000 (36%) were called active. Another 18% or so got no clear call; they are omitted. This is one part of the list.

// worked examples, normalized growth included
compound: Cc1c(O)c(O)cc2c1CC=C1[C@@]2(C)CC[C@@]2(C)C3C[C@](C)(C(=O)O)CC[C@]3(C)CC[C@]12C (stereo partly drawn)
normalized growth: 0.45 (active)
--
compound: Oc1ccc(Cl)c2cccnc12
normalized growth: 0.0624 (active)

// for each compound in input: emit normalized growth
1. O=C(O)c1ccccc1Nc1ccccc1
2. OC[C@@H]1CCCN2CCCC[C@H]12
3. C=CC(C)(O)CC/C=C(\C)CCC=C(C)C (stereo not drawn)
4. Cc1c(Nc2ncccc2C(=O)O)cccc1C(F)(F)F
5. Nc1ncnc2c1ncn2C1C[C@H](O)[C@@H](CO)O1 (stereo partly drawn)

["0.938 (inactive)", "1.01 (inactive)", "0.978 (inactive)", "0.971 (inactive)", "1 (inactive)"]

// for each compound in input: emit normalized growth
1. O=C(O)C1=CCNCC1
2. NCCCC[C@H](N[C@@H](CCc1ccccc1)C(=O)O)C(=O)N1CCC[C@H]1C(=O)O

1. 1.02 (inactive)
2. 0.985 (inactive)

// for each compound in input: emit normalized growth
1. COc1cc(OC)c2c(=O)c(-c3ccccc3)c(C)oc2c1OC
2. O=C(OC1Cc2c(O)cc(O)cc2OC1c1cc(O)c(O)c(O)c1-c1c(C2Oc3cc(O)cc(O)c3CC2OC(=O)c2cc(O)c(O)c(O)c2)cc(O)c(O)c1O)c1cc(O)c(O)c(O)c1 (stereo not drawn)
3. CCOC(=O)c1oc2c(OC)c(O)cc(O)c2c(=O)c1-c1cc(OC)c(OC)c(OC)c1
4. CC(=O)Nc1cc([As](=O)(O)O)ccc1O
5. Cc1ccc2c(Cl)cc(Cl)c(O)c2n1

0.987 (inactive)
0.849 (active)
0.985 (inactive)
1.02 (inactive)
1.02 (inactive)

// for each compound in input: emit normalized growth
1. C=C[C@@H](C1=CC(=O)C(OC)=C(OC)C1=O)c1ccccc1
2. CN[C@H](CC(=O)O)C(=O)O
3. N[C@@H](Cc1ccc(O)c(O)c1)C(=O)O
4. O=C(O)c1ccccc1Nc1cccc(C(F)(F)F)c1
5. Oc1c(Br)cc(Br)c2cccnc12

1. 0.775 (active)
2. 1.02 (inactive)
3. 1.01 (inactive)
4. 0.862 (active)
5. 0.0627 (active)

* * *

- protocol notes: chemical genetic growth profiling, strain panel (AID 1159580)
- measurement setup: S. cerevisiae deletion strains, growth OD, locus YJL115W, strain asf1
Hit rate of the full screen: of about 5,500 compounds, about 2,000 (36%) were called active. Roughly 18% stayed inconclusive and do not appear here. Rule as the data show it: active = normalized growth mostly below about 0.91 (no sharp cut-off); inconclusive = no clear call, values can overlap the other calls; inactive = mostly above about 0.92. This is one part of the list.
Outcomes you can answer with include only these: active, inactive

Examples from the recorded data:
molecule: CNC[C@@H](O)c1ccc(O)c(O)c1
qualitative label: inactive

molecule: CCCCC1=NC2(CCCC2)C(=O)N1Cc1ccc(-c2ccccc2-c2nn[nH]n2)cc1
qualitative label: inactive

molecule: CO[C@H]1/C=C/O[C@@]2(C)Oc3c(C)c(O)c4c(O)c(c(/C=N/N5CCN(C)CC5)c(O)c4c3C2=O)NC(=O)/C(C)=C\C=C\C(C)[C@H](O)[C@@H](C)[C@@H](O)[C@@H](C)[C@@H](OC(C)=O)[C@@H]1C (stereo not given in full)
qualitative label: inactive

molecule: CCN(CC)CCNC(=O)c1cc(S(C)(=O)=O)ccc1OC
qualitative label: inactive

molecule: Cc1ccc2c(Cl)cc(Cl)c(O)c2n1
qualitative label: inactive

Check the results log: what was the call for CC(=O)O[C@@H]1C[C@@]2(C)[C@H](c3ccoc3)C[C@H]3O[C@]32[C@]2(C)C(=O)C(O)=C3C(C)(C)C(=O)C=C[C@]3(C)C12 (stereo not given in full) ?
inactive

Check the results log: what was the call for CC(=O)O[C@@H]1CC2C(C)(C)C=CC(=O)[C@]2(C)C2CC[C@@]3(C)[C@H](c4ccoc4)OC(=O)C4OC43[C@@]21C (stereo not given in full) ?
inactive

* * *

- protocol notes: chemical genetic growth profiling, strain panel (AID 1159580)
- measurement setup: S. cerevisiae deletion strains, growth OD, locus YLR262C, strain YPT6 (second series), hits give low values
The campaign covered roughly 5,500 compounds. About 2,000 (36%) were called active. Not shown: some 18% with an inconclusive outcome. This is one part of the list.
outcome measure: normalized growth
Numbers only.

molecule: CC(=O)Oc1ccc(Cl)c2cccnc12
normalized growth: 0.0745
//
molecule: Cc1c(O)c(O)cc2c1CC=C1[C@@]2(C)CC[C@@]2(C)C3C[C@](C)(C(=O)O)CC[C@]3(C)CC[C@]12C (stereo not given in full)
normalized growth: 0.186
//
molecule: CCCCC1=NC2(CCCC2)C(=O)N1Cc1ccc(-c2ccccc2-c2nn[nH]n2)cc1
normalized growth: 1.04

// for each molecule in input: emit normalized growth
1. O=C(O)C1=CCNCC1
2. Oc1c(I)cc(I)c2cccnc12
3. CCN(CC)CCOc1ccc(/C(=C(\Cl)c2ccccc2)c2ccccc2)cc1
4. COc1c2c(cc3c1OCO3)CCN(C)C2
5. O=C(O)CF
6. O=C(O)/C=C/C=C/c1ccccc1
7. COc1cccc(/C=C/C(=O)O)c1C(C)C

[1.01, 0.109, 0.933, 0.987, 1.04, 0.518, 1.03]

* * *

- protocol notes: chemical genetic growth profiling, strain panel (AID 1159580);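 further: tested at 20 µM; growth read once vehicle control cultures reached saturation at 30 °C; 1 = growth at the plate median or of vehicle wells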
- measurement setup: S. cerevisiae deletion strains, growth OD, locus YGR252W, strain gcn5
In all, about 5,500 compounds went through this assay and about 2,000 (36%) were called active. Roughly 18% stayed inconclusive and do not appear here. No stated cut-off is given here; in the data, active means normalized growth mostly below about 0.91 (no sharp cut-off); inconclusive means no clear call, values can overlap the other calls; inactive means mostly above about 0.92. The list shows a part of the results.
Outcomes you can answer with include only these: active, inactive

Examples from the recorded data:
compound: C=CC(C)(O)CC/C=C(\C)CCC=C(C)C (configuration not stated)
qualitative label: inactive
//
compound: CCCCC(CC)CN1CN(CC(CC)CCCC)CC(C)(N)C1 (configuration not stated)
qualitative label: active
//
compound: CC1(C)C(O)CC(O)C2(C)C1CC(=O)C1(C)C2CCC2(C)C(C(=O)O)OC(=O)C3OC321 (configuration not stated)
qualitative label: inactive

Check the results log: what was the call for CC(C)=CCC[C@](C)(O)C1CC=C(C)CC1 (some centres not stated) ?
inactive

Check the results log: what was the call for O=c1[nH]c(=O)n(C2C[C@@H](O)[C@@H](CO)O2)cc1F (some centres not stated) ?
inactive

Check the results log: what was the call for c1ccc2c(c1)cc1ccc3cccc4ccc2c1c34 ?
inactive

Check the results log: what was the call for Nc1ncn([C@@H]2O[C@H](CO)[C@@H](O)[C@H]2O)c(=O)n1 ?
inactive

Check the results log: what was the call for Nc1ncnc2c1ncn2[C@@H]1O[C@H](CO)[C@@H](O)[C@H]1O ?
inactive

* * *

- protocol notes: chemical genetic growth profiling, strain panel (AID 1159580);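 further: tested at 20 µM; growth read once vehicle control cultures reached saturation at 30 °C; 1 = growth at the plate median or of vehicle wells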
- measurement setup: S. cerevisiae deletion strains, growth OD, locus YDR069C, strain doa4, hits give low values
Hit rate of the full screen: of about 5,500 compounds, about 2,000 (36%) were called active. Another 18% or so got no clear call; they are omitted. This is one part of the list.
Lab note: cut-off is 1. Strictly less in normalized growth is true. Exactly 1 or more is false.

Examples from the recorded data:
compound: Cc1c(Nc2ncccc2C(=O)O)cccc1C(F)(F)F
qualitative label: true
--
compound: NCCCC[C@H](N[C@@H](CCc1ccccc1)C(=O)O)C(=O)N1CCC[C@H]1C(=O)O
qualitative label: true

Quick check: normalized growth of C/C=C/c1ccc2c(c1)OCO2 under 1?
false

Quick check: normalized growth of Cc1c(O)c(O)cc2c1CC=C1[C@@]2(C)CC[C@@]2(C)C3C[C@](C)(C(=O)O)CC[C@]3(C)CC[C@]12C (stereo partly specified) under 1?
true

* * *

- protocol notes: chemical genetic growth profiling, strain panel (AID 1159580);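 further: tested at 20 µM; growth read once vehicle control cultures reached saturation at 30 °C; 1 = growth at the plate median or of vehicle wells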
- measurement setup: S. cerevisiae deletion strains, growth OD, locus YNL153C, strain GIM3, hits give low values
Screen size: about 5,500 compounds; about 2,000 (36%) were called active. Roughly 18% stayed inconclusive and do not appear here. Some of the results follow.
Answer each item with its documented normalized growth.
One number for each entry.

compound: NC(=NCCC[C@H](N)C(=O)O)NC(CCC(=O)O)C(=O)O (stereo not given in full)
recorded number: 0.989

// for each compound in input: emit normalized growth
1. C=CC(C1=CC(=O)C=CC1=O)c1ccccc1 (stereo not given)
2. COC(=O)[C@]1(C)CC[C@]2(C)CC[C@]3(C)C4=CCc5c(cc(O)c(O)c5C)[C@]4(C)CC[C@@]3(C)C2C1 (stereo not given in full)
3. CC(=O)OC1CC(OC(C)=O)C2(C)C(CC(OC(C)=O)C3(C)C2CCC2(C)C(c4ccoc4)CC4OC423)C1(C)C (stereo not given)
4. CNC[C@@H](O)c1ccc(O)c(O)c1
5. O=C(O)c1ccccc1Nc1cccc(C(F)(F)F)c1
6. CCCCC(CC)CN1CN(CC(CC)CCCC)CC(C)(N)C1 (stereo not given)
7. NC(=NS(=O)(=O)c1cc(C(F)(F)F)cc(C(F)(F)F)c1)c1cccs1

[0.93, 0.973, 1.03, 0.993, 0.937, 0.356, 0.991]

Cited source for all entries: PubChem BioAssay AID1159580
